# target_under_test: Large conductance calcium-activated potassium channel (Bos taurus) (UniProt Q28204+Q28067)
# assay_summary: Inhibition of large conductance calcium-activated potassium channel in bovine smooth muscle cells at 30 uM
# Type: functional, cell-based
Record form. Attribute: inhibition. Fill in for each entry.

**Q:** // fetch inhibition given entry O=C(OC[C@H]1CO[C@](Cn2ccnc2)(c2ccc(Cl)cc2Cl)O1)c1ccccc1
**A:** 40%

**Q:** # return recorded inhibition for input Cc1ccc(S(=O)(=O)OC[C@H]2CO[C@](Cn3ccnc3)(c3ccc(Cl)cc3Cl)O2)cc1
**A:** 2%

**Q:** Please report the measured inhibition for Clc1ccc([C@@]2(Cn3ccnc3)OC[C@H](COc3ccc(Br)cc3)O2)c(Cl)c1
**A:** 95%

**Q:** # return recorded inhibition for input Clc1ccc([C@@]2(Cn3ccnc3)OC[C@H](COc3ccccc3)O2)c(Cl)c1
**A:** 73%
